System Tested: human Nav1.7 (Homo sapiens (Human))
Sequence (Q15858 whole entry): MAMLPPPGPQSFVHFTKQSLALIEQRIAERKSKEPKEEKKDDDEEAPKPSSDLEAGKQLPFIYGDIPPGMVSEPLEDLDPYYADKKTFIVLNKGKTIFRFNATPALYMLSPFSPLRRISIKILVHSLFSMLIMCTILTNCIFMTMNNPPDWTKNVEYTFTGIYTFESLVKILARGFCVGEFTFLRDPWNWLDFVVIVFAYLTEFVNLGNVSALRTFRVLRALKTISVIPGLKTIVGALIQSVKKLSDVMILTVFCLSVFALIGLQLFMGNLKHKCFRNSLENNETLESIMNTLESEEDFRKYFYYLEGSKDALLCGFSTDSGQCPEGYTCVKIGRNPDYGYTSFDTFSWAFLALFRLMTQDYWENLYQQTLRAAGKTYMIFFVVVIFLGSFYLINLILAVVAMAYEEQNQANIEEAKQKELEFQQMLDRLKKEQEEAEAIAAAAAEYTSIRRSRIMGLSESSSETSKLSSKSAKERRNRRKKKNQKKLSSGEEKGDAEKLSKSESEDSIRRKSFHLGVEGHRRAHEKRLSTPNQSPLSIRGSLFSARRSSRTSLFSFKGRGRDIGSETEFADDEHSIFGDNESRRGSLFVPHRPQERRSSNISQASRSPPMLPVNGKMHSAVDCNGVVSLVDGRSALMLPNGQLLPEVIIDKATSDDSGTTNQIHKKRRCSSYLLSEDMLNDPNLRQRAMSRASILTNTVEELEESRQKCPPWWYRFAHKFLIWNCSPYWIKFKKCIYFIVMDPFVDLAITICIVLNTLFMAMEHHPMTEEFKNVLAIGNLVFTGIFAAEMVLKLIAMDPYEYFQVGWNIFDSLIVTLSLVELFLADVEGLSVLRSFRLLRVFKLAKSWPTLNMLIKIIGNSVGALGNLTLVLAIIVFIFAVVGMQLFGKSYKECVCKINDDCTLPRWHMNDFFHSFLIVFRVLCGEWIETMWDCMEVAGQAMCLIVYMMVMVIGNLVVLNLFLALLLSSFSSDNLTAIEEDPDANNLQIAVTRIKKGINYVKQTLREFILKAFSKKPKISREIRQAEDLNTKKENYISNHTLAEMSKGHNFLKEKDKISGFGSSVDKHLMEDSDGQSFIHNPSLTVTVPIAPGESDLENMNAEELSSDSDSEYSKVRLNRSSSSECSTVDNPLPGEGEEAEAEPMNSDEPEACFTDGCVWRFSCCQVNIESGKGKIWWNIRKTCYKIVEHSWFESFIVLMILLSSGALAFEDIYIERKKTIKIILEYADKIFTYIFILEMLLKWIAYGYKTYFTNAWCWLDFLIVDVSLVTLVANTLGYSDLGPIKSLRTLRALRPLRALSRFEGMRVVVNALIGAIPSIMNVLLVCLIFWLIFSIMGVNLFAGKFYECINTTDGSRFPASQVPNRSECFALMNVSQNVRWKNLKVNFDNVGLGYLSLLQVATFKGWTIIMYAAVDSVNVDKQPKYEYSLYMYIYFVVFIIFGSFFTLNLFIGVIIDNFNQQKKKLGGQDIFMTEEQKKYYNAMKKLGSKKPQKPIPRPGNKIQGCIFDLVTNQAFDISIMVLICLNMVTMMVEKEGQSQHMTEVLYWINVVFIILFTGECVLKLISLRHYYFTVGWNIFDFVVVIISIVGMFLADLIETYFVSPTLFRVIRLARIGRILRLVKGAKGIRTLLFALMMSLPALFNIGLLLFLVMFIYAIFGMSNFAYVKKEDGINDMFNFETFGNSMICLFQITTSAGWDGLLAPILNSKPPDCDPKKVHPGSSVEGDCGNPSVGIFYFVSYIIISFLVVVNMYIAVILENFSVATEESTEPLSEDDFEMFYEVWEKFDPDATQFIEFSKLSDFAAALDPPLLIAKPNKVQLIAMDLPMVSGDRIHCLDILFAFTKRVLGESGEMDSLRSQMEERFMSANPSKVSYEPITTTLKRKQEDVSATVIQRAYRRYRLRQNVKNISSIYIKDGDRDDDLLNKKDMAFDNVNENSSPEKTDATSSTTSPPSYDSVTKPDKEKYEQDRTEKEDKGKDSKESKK
Experimental Details: FRET-based membrane potential assay, recombinant human sodium channel Nav1.7
Stated Conditions: HEK293 cells stably expressing recombinant human Nav1.7; depolarization with veratridine (EC80) + scorpion venom
Text: FRET-Based Membrane Potential Assays. Recombinant, Human Sodium Channel, Nav1.7. […]
Observation Type: pIC50
// field semantics: pIC50 = negative decimal log of concentration (mol/L)

### Prompt GET /values?readout=pIC50&item= O=C1N(CC2CCCC2)CCN1c1cccc2c1cnn2-c1ccccc1F
### Response 5.20

### Prompt GET /values?readout=pIC50&item= O=C1N(c2cccc3c2cnn3-c2ccccc2F)CCN1[C@H]1CC[C@H](O)CC1
### Response 5.09

### Prompt GET /values?readout=pIC50&item= CC(C)COC(=O)N1CCN(c2cccc3c2cnn3-c2ccccc2F)C1=O
### Response 6.78

### Prompt GET /values?readout=pIC50&item= COC1C2CCC1CN(C(=O)CN1CCN(c3cccc4c3cnn4-c3ccccc3F)C1=O)C2 (stereo not shown)
### Response 5.99

### Prompt GET /values?readout=pIC50&item= O=C(OC1CCCC1)N1CCN2C(=O)N(c3cccc4c3cnn4-c3ccccc3F)CC2C1 (stereo not shown)
### Response 5.64

### Prompt GET /values?readout=pIC50&item= O=C(CN1CCN(c2cccc3c2cnn3-c2ccc(Cl)cc2)C1=O)N1CC[C@H](F)C1
### Response 5.97

### Prompt GET /values?readout=pIC50&item= Cc1nnc(CN2CCN(c3cccc4c3cnn4-c3ccc(C(F)(F)F)cc3)C2=O)s1
### Response 4.87

### Prompt GET /values?readout=pIC50&item= O=C(CN1CCN(c2cccc3c2cnn3-c2ccccc2F)C1=O)NC1(CO)CCC1
### Response 5.51

### Prompt GET /values?readout=pIC50&item= Cc1noc(C)c1N1CCN(c2cccc3c2cnn3-c2ccccc2F)C1=O
### Response 6.03

### Prompt GET /values?readout=pIC50&item= Cc1nnc(CN2CCN(c3cccc4c3cnn4-c3ccccc3F)C2=O)o1
### Response 5.53

### Prompt GET /values?readout=pIC50&item= CC(C)COC1COCC1N1CCN(c2cccc3c2cnn3-c2ccccc2F)C1=O (stereo not shown)
### Response 5.67

### Prompt GET /values?readout=pIC50&item= C[C@@H]1CCCN1C(=O)CN1CCN(c2cccc3c2cnn3-c2ccccc2F)C1=O
### Response 5.96

### Prompt GET /values?readout=pIC50&item= CC1(C)CC1NC(=O)CN1CCN(c2cccc3c2cnn3-c2ccccc2F)C1=O (stereo not shown)
### Response 5.52

### Prompt GET /values?readout=pIC50&item= Cc1nc(CN2CCN(c3cccc4c3cnn4-c3ccc(F)cc3F)C2=O)cs1
### Response 5.79

### Prompt GET /values?readout=pIC50&item= CN1CCCC2CN(C(=O)CN3CCN(c4cccc5c4cnn5-c4ccccc4F)C3=O)CC21 (stereo not shown)
### Response 5.57

### Prompt GET /values?readout=pIC50&item= CO[C@@H](CC(C)C)CN1CCN(c2cccc3c2cnn3-c2ccccc2F)C1=O
### Response 5.97

### Prompt GET /values?readout=pIC50&item= C[C@H]1CCCN1C(=O)CN1CCCN(c2cccc3c2cnn3-c2ccccc2F)C1=O
### Response 5.72

### Prompt GET /values?readout=pIC50&item= C[C@@H]1CN(c2cccc3c2cnn3-c2ccccc2F)C(=O)N1C(=O)OC(C)(C)C
### Response 5.63

### Prompt GET /values?readout=pIC50&item= CC(C)O[C@H]1CCCC[C@@H]1N1CCN(c2cccc3c2cnn3-c2ccccc2F)C1=O
### Response 5.84

### Prompt GET /values?readout=pIC50&item= COC[C@H]1CCCN1C(=O)CN1CCN(c2cccc3c2cnn3-c2ccccc2F)C1=O
### Response 6.10

### Prompt GET /values?readout=pIC50&item= O=C(CN1CCN(c2cccc3c2cnn3-c2ccccc2F)C1=O)N1C[C@H]2CC[C@@H](C1)O2
### Response 5.50

### Prompt GET /values?readout=pIC50&item= O=C1N(c2cncc(N3CCOCC3)c2)CCN1c1cccc2c1cnn2-c1ccccc1F
### Response 5.73

### Prompt GET /values?readout=pIC50&item= O=C1N(Cc2nnc(C3CC3)s2)CCN1c1cccc2c1cnn2-c1ccccc1F
### Response 5.89

### Prompt GET /values?readout=pIC50&item= CC(C)C(=O)CN1CCN(c2cccc3c2cnn3-c2ccccc2F)C1=O
### Response 6.14

### Prompt GET /values?readout=pIC50&item= COC[C@H]1CC[C@H](COC)N1C(=O)CN1CCN(c2cccc3c2cnn3-c2ccccc2F)C1=O
### Response 6.17

### Prompt GET /values?readout=pIC50&item= O=C1CCC(N2CCN(c3cccc4c3cnn4-c3ccccc3F)C2=O)CC1
### Response 5.52

### Prompt GET /values?readout=pIC50&item= O=C1N(Cc2ccc(C(F)(F)F)cn2)CCN1c1cccc2c1cnn2-c1ccccc1F
### Response 4.97

### Prompt GET /values?readout=pIC50&item= O=C(CCN1CCN(c2cccc3c2cnn3-c2ccccc2F)C1=O)N1CCC[C@H](F)C1
### Response 5.50
